This collection of values is drawn from patent US20230416256A1.

# test.target: recombinant human NF-kappaB-inducing kinase (NIK/MAP3K14) (Homo sapiens, UniProt Q99558)
# Sequence (Q99558 whole entry): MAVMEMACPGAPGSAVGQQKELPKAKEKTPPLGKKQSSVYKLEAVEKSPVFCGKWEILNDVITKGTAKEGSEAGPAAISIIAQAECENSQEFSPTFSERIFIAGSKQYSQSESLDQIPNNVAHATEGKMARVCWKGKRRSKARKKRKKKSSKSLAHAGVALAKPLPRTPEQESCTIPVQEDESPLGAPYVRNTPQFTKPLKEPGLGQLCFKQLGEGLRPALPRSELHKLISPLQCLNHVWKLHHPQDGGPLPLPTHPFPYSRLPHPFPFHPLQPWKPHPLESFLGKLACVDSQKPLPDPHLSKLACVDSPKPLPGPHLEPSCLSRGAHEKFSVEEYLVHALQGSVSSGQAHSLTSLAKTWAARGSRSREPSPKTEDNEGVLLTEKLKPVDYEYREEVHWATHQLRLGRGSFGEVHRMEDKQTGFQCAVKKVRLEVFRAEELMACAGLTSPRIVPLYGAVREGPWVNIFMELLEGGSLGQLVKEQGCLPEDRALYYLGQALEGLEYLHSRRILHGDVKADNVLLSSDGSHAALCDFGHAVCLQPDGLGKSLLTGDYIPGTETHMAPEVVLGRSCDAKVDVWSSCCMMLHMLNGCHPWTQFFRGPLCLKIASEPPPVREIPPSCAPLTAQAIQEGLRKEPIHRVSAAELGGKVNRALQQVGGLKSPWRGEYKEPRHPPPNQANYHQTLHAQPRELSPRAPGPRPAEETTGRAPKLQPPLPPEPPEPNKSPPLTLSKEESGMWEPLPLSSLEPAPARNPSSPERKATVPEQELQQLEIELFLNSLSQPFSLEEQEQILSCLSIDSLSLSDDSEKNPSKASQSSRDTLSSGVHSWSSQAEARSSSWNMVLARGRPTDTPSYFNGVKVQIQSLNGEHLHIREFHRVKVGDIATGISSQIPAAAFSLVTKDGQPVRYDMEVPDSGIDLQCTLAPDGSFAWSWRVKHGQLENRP
# procedure.summary: Inhibition of auto-phosphorylation of recombinant human NIK/MAP3K14 activity (AlphaScreen)
# Format: biochemical
# conditions: GST-tagged NIK/MAP3K14 1 nM, 5 μM ATP, 2 h at 25° C.; average of values obtained
pIC50: −log10 of the molar value.

molecule: Cn1ccnc1[C@@](C)(O)c1cccc(-c2csc(-c3c[nH]c4ncccc34)n2)c1 (single isomer, unassigned) [Example 79]
pIC50: < 6.30
//
molecule: C[C@@]1(O)C[C@](O)(c2cccc(-c3csc(-c4c[nH]c5ncccc45)n3)c2)c2ncccc21 (single isomer, unassigned) [Example 107]
pIC50: < 6.30
//
molecule: CN1CC[C@@](O)(c2cccc(-c3nc(-c4c(F)[nH]c5ncccc45)cs3)c2)C1=O [Example 56]
pIC50: 6.30 to 7.00
//
molecule: CN1CC[C@](O)(c2cccc(-c3csc(-c4c[nH]c5ncncc45)n3)c2)C1=O (single isomer, unassigned) [Example 52]
pIC50: 6.30 to 7.00
//
molecule: CN1CC[C@](O)(c2cccc(-c3csc(-c4c[nH]c5nccnc45)n3)c2)C1=O (single isomer, unassigned) [Example 39]
pIC50: < 6.30
//
molecule: CN1CC[C@@](O)(c2cccc(-c3coc(-c4c[nH]c5ncccc45)n3)c2)C1=O [Example 116]
pIC50: ≥ 7.00
//
molecule: CN1CC[C@@](O)(c2cccc(-c3ccc(-c4c[nH]c5ncccc45)o3)c2)C1=O [Example 114]
pIC50: ≥ 7.00
//
molecule: O[C@]1(c2cccc(-c3nc(-c4c[nH]c5ncccc45)cs3)c2)CCn2ccnc21 [Example 84]
pIC50: 6.30 to 7.00
//
molecule: O[C@@H]1C[C@@](O)(c2cccc(-c3csc(-c4c[nH]c5ncccc45)n3)c2)c2ncccc21 (single isomer, unassigned) [Example 101]
pIC50: 6.30 to 7.00
//
molecule: O[C@@]1(c2cccc(-c3csc(-c4c[nH]c5nccnc45)n3)c2)CCn2ccnc21 [Example 41]
pIC50: ≥ 7.00
